molecular target: Androgen receptor (Homo sapiens) (UniProt P10275); assay: qHTS assay to identify small molecule agonists of the androgen receptor (AR) signaling pathway in the presence of an antagonist (AID 1259381); settings: MDA-kb2 MMTV-luciferase, AR agonist + nilutamide, 16 h; series mostly up to 42.5 µM; note: % is set by controls: 0 for no effect and ±100 for the full control effect; nearly all actives have a fitted effect of over 15% in size
Sequence (P10275 whole entry, looked up): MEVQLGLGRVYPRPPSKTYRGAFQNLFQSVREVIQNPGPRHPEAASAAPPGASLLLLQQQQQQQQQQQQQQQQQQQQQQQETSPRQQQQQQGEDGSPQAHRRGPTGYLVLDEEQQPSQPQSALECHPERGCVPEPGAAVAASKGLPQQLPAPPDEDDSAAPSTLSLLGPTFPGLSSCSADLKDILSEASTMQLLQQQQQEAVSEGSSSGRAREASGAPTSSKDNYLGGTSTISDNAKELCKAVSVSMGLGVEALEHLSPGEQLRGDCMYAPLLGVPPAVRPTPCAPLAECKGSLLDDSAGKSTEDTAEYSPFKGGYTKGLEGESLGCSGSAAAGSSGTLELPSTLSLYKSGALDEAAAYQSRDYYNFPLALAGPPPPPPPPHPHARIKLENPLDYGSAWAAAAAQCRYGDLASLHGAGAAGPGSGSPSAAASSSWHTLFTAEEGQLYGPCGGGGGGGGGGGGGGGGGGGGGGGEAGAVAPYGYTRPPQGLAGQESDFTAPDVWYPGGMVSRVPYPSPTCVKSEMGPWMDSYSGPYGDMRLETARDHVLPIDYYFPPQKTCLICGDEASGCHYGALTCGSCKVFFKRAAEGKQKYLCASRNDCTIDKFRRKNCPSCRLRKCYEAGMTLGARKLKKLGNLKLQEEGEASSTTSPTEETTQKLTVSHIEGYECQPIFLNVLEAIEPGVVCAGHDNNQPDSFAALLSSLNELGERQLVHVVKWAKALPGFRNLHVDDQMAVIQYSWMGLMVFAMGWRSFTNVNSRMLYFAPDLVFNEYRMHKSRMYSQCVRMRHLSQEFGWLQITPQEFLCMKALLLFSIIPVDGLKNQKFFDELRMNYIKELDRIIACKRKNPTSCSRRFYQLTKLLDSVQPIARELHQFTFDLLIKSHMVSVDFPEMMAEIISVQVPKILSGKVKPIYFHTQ
Calls of active or inactive are those of the source. Calls come from the whole dose curve.

| compoundSmiles | outcome |
| --- | --- |
| CO[C@]12C[C@@H](COC(=O)c3cncc(Br)c3)CN(C)[C@@H]1Cc1cn(C)c3cccc2c13 | inactive |
| CC(=O)Nc1ccc(S(N)(=O)=O)cc1 | inactive |
| CCCCOCCOCCOCc1cc2c(cc1CCC)OCO2 | inactive |

====

assay: qHTS assay for identifying genotoxic compounds that show differential cytotoxicity against isogenic chicken DT40 cell lines with known DNA damage response pathways - wild type cell line (AID 743012); conditions: DT40 wild type chicken cells viability, CellTiter-Glo, 40 h; series mostly up to 68.4 µM; note: nearly all actives have a fitted effect of over 60% in size
Records with an inconclusive call do not appear. Active and inactive are the calls of the source. Calls come from the whole dose curve; as a rule, active = well fitted cell-killing curve with a large enough effect in the repeat runs; inconclusive = weak or mixed curves, or effect the other way; inactive = no such curve, though single readings can be large or run the other way.
Choose the fitting class; nothing outside yes (1) (active), no (0) (inactive) is accepted.

// known answers, use as guide
| compound | cat |
| --- | --- |
| C[C@](N)(Cc1ccc(O)cc1)C(=O)O | no (0) |
| CCOC(=O)Nc1ccc(NCc2ccc(F)cc2)nc1N | yes (1) |
| O=C(O)COc1nn(Cc2ccccc2)c2ccccc12 | no (0) |

*Q* Query: recorded result category for `NC(=O)c1ccc([N+](=O)[O-])cc1` in this test
*A* no (0)

*Q* Assay outcome for `C1OCOCO1` : what was it?
*A* no (0)

*Q* For `O=C(CCCN1CCC(O)(c2cccc(C(F)(F)F)c2)CC1)c1ccc(F)cc1` , which call appears in the assay record?
*A* yes (1)

*Q* Please state the recorded outcome for this compound: `CN1CCN(c2cc3c(cc2F)c(=O)c(C(=O)O)cn3-c2ccc(F)cc2)CC1`
*A* yes (1)

====

assay: qHTS assay to identify small molecule agonists of the estrogen related receptor signaling pathway with the pleiotropic PPARgamma coactivator (PGC) from Tox21 10K library (AID 1224842); conditions: PGC/ERR reporter cell line, luciferase ONE-Glo, 18 h; series mostly up to 92.4 µM; note: % is set by controls: 0 for no effect and ±100 for the full control effect; nearly all actives have a fitted effect of over 15% in size
Inconclusive results are not listed. Activity calls are given as the source filed them. The call rests on the fitted dose curve; in most records, active means well fitted activation curve with a large enough effect in the repeat runs; inconclusive means weak or mixed curves, or effect the other way; inactive means no such curve, though single readings can be large or run the other way.
assayMetric: activation

| compound | activation |
| --- | --- |
| O=C(O)Cc1ccc(CCNS(=O)(=O)c2ccc(Cl)cc2)cc1 | inactive |
| CC(C)(C)NCCNC(C)(C)C | inactive |
| NS(=O)(=O)c1cc(C(=O)NN2C[C@H]3[C@H]4CCC(C4)[C@H]3C2)ccc1Cl | inactive |
| NC(=O)c1ccc(N)cc1 | inactive |
| O=C[C@H](O)[C@@H](O)[C@H](O)[C@H](O)CO | inactive |

*Q* For the compound `CC(=O)c1ccccc1O` , give its measured activation value.
*A* inactive

*Q* // Input: `O=Cc1cccc([N+](=O)[O-])c1` . Output its activation only.
*A* inactive

*Q* Consider the compound `CC1(C)CO[C@@H](CC(=O)O)CN1` . State its measured activation.
*A* inactive

*Q* Annotate the compound C=COCC1CCC(CO)CC1 (stereo not given) with its measured activation.
*A* inactive

*Q* Supply measured activation of `O=C(O)CNC(=O)c1ccc([N+](=O)[O-])cc1` in your reply.
*A* inactive

*Q* Supply recorded activation for `CCOc1ccc(C(=O)OCCN(CC)CC)cc1` here.
*A* inactive

*Q* Indicate the recorded activation value for this compound: `CS(=O)(=O)O`
*A* inactive

====

assay: qHTS assay to identify small molecule agonists of the retinoic acid receptor (RAR) signaling pathway (AID 1159553); settings: C3RL4 RARE luciferase reporter, agonist, 6 h; series mostly up to 73.3 µM; note: % is set by controls: 0 for no effect and ±100 for the full control effect
Records with an inconclusive call do not appear. Calls of active or inactive are those of the source. The call rests on the fitted dose curve; in most records, active means well fitted activation curve with a large enough effect in the repeat runs; inconclusive means weak or mixed curves, or effect the other way; inactive means no such curve, though single readings can be large or run the other way.

| compoundSmiles | activation |
| --- | --- |
| CCOC(=O)c1cccc(N)c1 | inactive |
| CCOC(=O)[C@H](CCc1ccccc1)N[C@@H](C)C(=O)N1[C@H](C(=O)O)C[C@@H]2CCC[C@@H]21 | inactive |
| CC(C)(CC(=O)O)C(=O)O | inactive |

====

target: Voltage-gated inwardly rectifying potassium channel KCNH2 (Homo sapiens); assay: Human Ether-a-go-go-Related Gene (hERG) channel small molecule antagonists: fluorescence cell-based qHTS assay (AID 1671200); details: hERG-U2OS cells, FluxOR thallium flux fluorescence; series mostly up to 76.8 µM;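 note: hERG-expressing U2OS cells given a thallium stimulus after FluxOR II dye loading; % is set by controls: 0 for no effect and ±100 for the full control effect; nearly all actives have a fitted effect of over 50% in size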
Results filed as inconclusive are left out. The source made the active and inactive calls. The call rests on the fitted dose curve; in most records, active means well fitted inhibition curve with a large enough effect in the repeat runs; inconclusive means weak or mixed curves; inactive means flat fitted curve, though single readings scatter.
assayMetric: activity change, negative = inhibition

Sample answers from the record:
| molecule | studyTarget | assayMetric | observedValue |
| --- | --- | --- | --- |
| CS(=O)(=O)O | Voltage-gated inwardly rectifying potassium channel KCNH2 (Homo sapiens) | activity change, negative = inhibition | inactive |
| CC(C[N+](C)(C)C)OC(N)=O (stereo not drawn) | Voltage-gated inwardly rectifying potassium channel KCNH2 (Homo sapiens) | activity change, negative = inhibition | inactive |
| C[N+](C)(C)CCCCCC[N+](C)(C)C | Voltage-gated inwardly rectifying potassium channel KCNH2 (Homo sapiens) | activity change, negative = inhibition | inactive |
| NC(CSCC(=O)O)C(=O)O (stereo not drawn) | Voltage-gated inwardly rectifying potassium channel KCNH2 (Homo sapiens) | activity change, negative = inhibition | inactive |
| O=c1cc(CO)occ1O | Voltage-gated inwardly rectifying potassium channel KCNH2 (Homo sapiens) | activity change, negative = inhibition | inactive |

*Q* Give the reported activity change, negative = inhibition for this molecule. `N[C@@H](C(=O)N[C@@H]1C(=O)N2C(C(=O)O)=C(Cl)CS[C@H]12)c1ccccc1`
*A* -6.12% [at 6.97 µM] (inactive)

*Q* Identify measured activity change, negative = inhibition corresponding to `CC1(C)CO[C@@H](CC(=O)O)CN1`
*A* inactive

*Q* Give the reported activity change, negative = inhibition for this molecule. `O=C(O)CN(CCOCCOCCN(CC(=O)O)CC(=O)O)CC(=O)O`
*A* 0.825% [at 0.29 µM] (inactive)

====

Parameter max response: see the listing below.
assay: qHTS RealTime-Glo MT Cell Viability Assay in HEK293 cells - 40 hour (AID 1224874); details: RealTime-Glo luminescence; hits give low values; note: % is set by controls: 0 for no effect and ±100 for the full control effect; nearly all actives have a fitted effect of over 50% in size
Records with an inconclusive call do not appear.
Write down the numeric answer in % and omit the unit.

| compoundSmiles | max response (%) |
| --- | --- |
| ClC(Cl)(Br)Br | -1.43 |
| CC(=O)Nc1ccc(S(N)(=O)=O)cc1 | 14.7 |
| NS(=O)(=O)c1cc(C(=O)NN2C[C@H]3[C@H]4CCC(C4)[C@H]3C2)ccc1Cl | -21.1 |

*Q* Indicate the recorded max response value for this molecule: `CCCCNC(=O)NCCCC`
*A* -3.77

*Q* Identify measured max response corresponding to `CCCCCCOC(=O)CCCCC(=O)OCCCCCC`
*A* 7.23

*Q* Supply recorded max response for `CCCCCCCCCCCCN(CCCCCCCCCCCC)CCCCCCCCCCCC` here.
*A* 0.0553

*Q* Provide max response value for the following molecule: `COC(=O)NN`
*A* 1.74

====

Target: Glucocorticoid receptor (Homo sapiens)
Test: qHTS assay to identify small molecule agonists of the glucocorticoid receptor (GR) signaling pathway (AID 720691); note: % is set by controls: 0 for no effect and ±100 for the full control effect
Details: GR-bla HeLa, beta-lactamase reporter ratio, 18 h; series mostly up to 62.4 µM
From the text: U.S. Tox21 Program National Center for Advancing Translational Sciences [NCATS] NIH Chemical Genomics Center [NCGC] U.S. Environmental Protection Agency [EPA] National Institutes of Environmental Health Sciences [NIEHS] National Toxicology Program [NTP] U.S. Food and Drug Administration [FDA] […] The activation of the reporter gene under culture conditions can be detected by fluorescence intensity. […]
Inconclusive results are not listed. Calls of active or inactive are those of the source. The call rests on the fitted dose curve; in most records, active means well fitted activation curve with a large enough effect in the signal ratio in the repeat runs (not every such curve was filed as active); inconclusive means weak or mixed curves, or effect the other way; inactive means no such curve, though single readings can be large or run the other way; the % refers to the signal ratio.
Choose one outcome from this list and give only that: active, inactive

Would you please look over these solved cases?
| molecule | cat |
| --- | --- |
| CN(C)CCCNCCCN(C)C | inactive |
| CC1=CC(C)C(C=O)CC1 (stereo not drawn) | inactive |
| NC(=O)Nc1ccccc1 | inactive |

*Q* Write down the call the test reported for this molecule. Item: `CC(C)(C)c1nnc(NS(=O)(=O)c2ccccc2)s1`
*A* inactive

*Q* // return assay outcome for CCO[Si](CCC1CCC2OC2C1)(OCC)OCC (stereo not drawn)
*A* inactive

*Q* Hi, do you know how `N[C@@H](C(=O)N[C@@H]1C(=O)N2C(C(=O)O)=C(Cl)CS[C@H]12)c1ccccc1` came out in this test?
*A* inactive

*Q* Each molecule tested received a call. Report the one for `C=CCS(=O)(=O)O` .
*A* inactive

*Q* Hi, sorry to bother you, what did the test record for `OCCOc1ccc(OCCO)cc1` ?
*A* inactive

*Q* What did the test return for `CC(=O)Nc1ccc(S(N)(=O)=O)cc1` ?
*A* inactive
